protocol-text: Oil-water partition coefficient (n-octanol / pH 7.4 phosphate buffer)
Assay type: physicochemical
condition-context: pH 7.4
We begin with a simple list: items and their reported logD.
Provide a numeric answer; units are not to be included.

{"columns": ["compound", "logD"],
 "data": [
  ["O=C(NCc1ccc(F)cc1F)c1cn2c(c(O)c1=O)C(=O)N1C(C2)OCC12CC2 (racemic)", 1.8]
]}

Next compound, please.
Exam item: Form field: reported logD of O=C(NCc1ccc(F)cc1F)c1cn2c(c(O)c1=O)C(=O)N1C(C2)OCCC12CC2 (racemic)
Marked response: 1.5

====

protocol-text: in vivo
Design: species or system Crab-eating macaques (Macaca fascicularis)
condition-context: male, cynomolgus monkey, po, 30 mg/kg
observable: half-life (min)
Write the value in min as a bare number.

Exam item: half-life for `C[C@H]1N2C(=O)c3c(O)c(=O)c(C(=O)NCc4ccc(F)cc4F)cn3C[C@@H]2OCC12CC2` ?
Marked response: 942

====

protocol-text: in vivo
Design: species or system Crab-eating macaques (Macaca fascicularis)
condition-context: male, cynomolgus monkey, po, 30 mg/kg
observable: AUC(0-inf) (ng·h/mL)
Return type: number; implicit unit ng·h/mL.

Exam item: Returns the measured AUC(0-inf) for the input compound. Input: `C[C@H]1N2C(=O)c3c(O)c(=O)c(C(=O)NCc4ccc(F)cc4F)cn3C[C@@H]2OCC12CC2`
Marked response: 23100

====

protocol-text: Cytotoxicity test (cell viability, CellTier Glo)
Assay type: cell-based
condition-context: human; HEK 293T cells, highest test concentration 1000 nM; read-out: CC50
observable: CC50 at 3 days

Exam item: So what's the measured CC50 at 3 days for this one? Cc1nnc(C(=O)NC(C)(C)c2nc(C(=O)NCc3ccc(F)cc3)c(O)c(=O)n2C)o1 [RAL, Raltegravir, reference compound]
Marked response: > 1000 nM

====

protocol-text: Oil-water partition coefficient (n-octanol / pH 7.4 phosphate buffer)
Format: physicochemical
condition-context: n-octanol / pH 7.4 phosphate buffer, pH 7.4; read-out: Log D (pH 7.4)
observable: logD
The answer should be written as a number, with no unit following it.

{"columns": ["molecule", "logD"],
 "data": [
  ["C[C@@H]1CCO[C@H]2Cn3cc(C(=O)NCc4ccc(F)cc4F)c(=O)c(O)c3C(=O)N12 [DTG, Dolutegravir, reference compound]", 1.6],
  ["C[C@H]1N2C(=O)c3c(O)c(=O)c(C(=O)NCc4ccc(F)cc4F)cn3C[C@@H]2OCC12CC2", 2.2],
  ["C[C@H]1N2C(=O)c3c(O)c(=O)c(C(=O)NCc4ccc(F)cc4F)cn3C[C@@H]2OC12CC2", 1.9],
  ["C[C@@H]1CC2(CC2)O[C@H]2Cn3cc(C(=O)NCc4ccc(F)cc4F)c(=O)c(O)c3C(=O)N12", 2]
]}

Exam item: Consider the molecule shown here: `C[C@H]1N2C(=O)c3c(O)c(=O)c(C(=O)NCc4ccc(F)cc4F)cn3C[C@@H]2OCC12CCC2` What is its recorded logD?
Marked response: 2.5

====

protocol-text: Oil-water partition coefficient (n-octanol / pH 7.4 phosphate buffer)
Assay type: physicochemical
condition-context: n-octanol / pH 7.4 phosphate buffer; read-out: Log D (pH 7.4)
observable: logD
Format: numeric value only, no unit, no commentary.

Exam item: Which value of logD has been reported for C[C@]12CC[C@H]3[C@@H](CCC4=CC(=O)CC[C@@]43C)[C@@H]1CC[C@@H]2O [Testosterone, reference compound] in the records?
Marked response: 2.85
